Biological target: CyclinE1/CDK2 (Homo sapiens, UniProt P24864)
Construct: purchased Eurofins, discovery 14-475
Experiment: Fluorescence Polarization (FP) competitive binding assay, Cyclin E1/Cdk2;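 note: readings taken after two-hour equilibration at room temperature in HEPES buffer with NaCl, DTT, NP-40 and BSA, IC50 fitted from eight-concentration serial dilution series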
Details: 10 nM Cyclin E1/Cdk2, 2 nM FAM probe; average of 2-3 independent experiments; read-out: Cyclin E FP IC50
*1 amine or outer side, *2 acyl side, *3 side chain or, on linkers, in order; H or OH if unused. Where a SMILES comes first, the peptide text is derived from it. Bridges are numbered along the chain shown (N, C = ends). [ ]: non-standard residue; d: D form. The star is where a group is joined. X106 = CN([C@@H](Cc1cc(Cl)ccc1-c1ccc(N2CCN(Cc3ccccn3)CC2)cc1)C(=O)[*:2])[*:1]; X190 = CC(=O)N1CC(Oc2ncc(Cl)cc2C[C@@H](C(=O)[*:2])N(C)[*:1])C1; X76 = CN([C@@H](Cc1cc(Cl)ccc1-c1cnn2cccnc12)C(=O)[*:2])[*:1]; NMehhhLys(Me) = CN([C@@H](CCCCCCCN(C)[*:3])C(=O)[*:2])[*:1]; X96 = CN([C@@H](Cc1cc(Cl)cc2ccn(C)c12)C(=O)[*:2])[*:1]; cBuCO(3,3-F2-1-CF3) = O=C(C1(C(F)(F)F)CC(F)(F)C1)*; Pro(trans-4-F) = O=C(O)[C@@H]1C[C@@H](F)CN1; Gly(cPr) = N[C@H](C(=O)O)C1CC1
As shown below, each of these molecules has a reported pIC50 value.
Quick note: pIC50 values are minus log10 of concentrations in mol/L.

These solved cases illustrate the format of a correct answer.
INSERT INTO assay_data (molecule, target_entity, reported_measurement) VALUES
  ('CC(=O)N1CC=C(c2ccc(Cl)cc2C[C@H]2C(=O)N(C)CCCCC=CC[C@H](N(C)C(=O)[C@@H](NC(=O)[C@@H]3C[C@@H](F)CN3C(=O)C3(C(F)(F)F)CCC3)C3CC3)C(=O)N[C@@H](CC(C)C)C(=O)N2C)CC1', 'CyclinE1/CDK2 (Homo sapiens, UniProt P24864)', 6.09),
  ('CC(C)C[C@@H]1NC(=O)[C@@H](N(C)C(=O)[C@@H](NC(=O)[C@@H]2C[C@@H](F)CN2C(=O)C2(C(F)(F)F)CC(F)(F)C2)C2CC2)CC=CCCCCN(C)C(=O)[C@H](Cc2cc(F)ccc2-c2cnn(C3CCC3)c2)N(C)C1=O', 'CyclinE1/CDK2 (Homo sapiens, UniProt P24864)', 6.70),
  ('CC(C)C[C@@H]1NC(=O)[C@@H](N(C)C(=O)[C@@H](NC(=O)[C@@H]2C[C@@H](F)CN2C(=O)C2(C(F)(F)F)CC(F)(F)C2)C2CC2)CCCCCCCN(C)C(=O)[C@H](Cc2cc(Cl)ccc2-c2cnn3cccnc23)N(C)C1=O [Example 297] ({cBuCO(3,3-F2-1-CF3)}-[Pro(trans-4-F)][Gly(cPr)][NMehhhLys(Me)]L[X76]; lactam 3-C)', 'CyclinE1/CDK2 (Homo sapiens, UniProt P24864)', 5.90),
  ('CC(=O)N1CC(Oc2ncc(Cl)cc2C[C@H]2C(=O)N(C)CCCCCCC[C@H](N(C)C(=O)[C@@H](NC(=O)[C@@H]3C[C@@H](F)CN3C(=O)C3(C(F)(F)F)CC(F)(F)C3)C3CC3)C(=O)N[C@@H](CC(C)C)C(=O)N2C)C1 [Example 324] ({cBuCO(3,3-F2-1-CF3)}-[Pro(trans-4-F)][Gly(cPr)][NMehhhLys(Me)]L[X190]; lactam 3-C)', 'CyclinE1/CDK2 (Homo sapiens, UniProt P24864)', 6.28),
  ('CC(C)C[C@@H]1NC(=O)[C@@H](N(C)C(=O)[C@@H](NC(=O)[C@@H]2C[C@@H](F)CN2C(=O)C2(C(F)(F)F)CC(F)(F)C2)C2CC2)CCCCCCCN(C)C(=O)[C@H](Cc2cc(Cl)cc3ccn(C)c23)N(C)C1=O [Example 392] ({cBuCO(3,3-F2-1-CF3)}-[Pro(trans-4-F)][Gly(cPr)][NMehhhLys(Me)]L[X96]; lactam 3-C)', 'CyclinE1/CDK2 (Homo sapiens, UniProt P24864)', 6.08);

// moving on: another record for pIC50
Query string: Data request, read-out pIC50, for CC(C)C[C@@H]1NC(=O)[C@@H](N(C)C(=O)[C@@H](NC(=O)[C@@H]2C[C@@H](F)CN2C(=O)C2(C(F)(F)F)CC(F)(F)C2)C2CC2)CCCCCCCN(C)C(=O)[C@H](Cc2cc(Cl)ccc2-c2ccc(N3CCN(Cc4ccccn4)CC3)cc2)N(C)C1=O [Example 368] ({cBuCO(3,3-F2-1-CF3)}-[Pro(trans-4-F)][Gly(cPr)][NMehhhLys(Me)]L[X106]; lactam 3-C)
Result string: 6.32
